Molecular target: Aβ (Homo sapiens, UniProt P05067)
Construct: Aβ peptide: Aβ (1-40) 95% purity (American Peptide Company, Inc, Sunnyvale, Calif. USA)
Sequence (P05067 672-711 limits assumed): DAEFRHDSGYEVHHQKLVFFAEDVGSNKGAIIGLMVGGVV
Experiment: circular dichroism (CD) assay, inhibition of fibrillogenesis
Assay type: biochemical
Set-up: key: “+” = active; “−” = inactive; “pr” = promoting
Conditions: soluble Aβ, 37° C., 190-240 nm
Experimental: Test compounds were purchased from commercial sources or synthesized and screened by thioflavin T fluorescent assay (“ThT assay”). […] In the circular dichroism (“CD”) assay, samples were transferred to 0.1-cm path-length quartz cuvettes and CD scans were taken using a Jasco J-715 spectropolarimeter. Readings were taken at 37° C., between 190 and 240 nm, with a resolution of 0.1 nm and a bandwidth of 1 nm. […]
measurement name: CD

## Task Please indicate CD recorded for Cn1c(-c2nc3ccc(C(=N)N)cc3[nH]2)ccc1-c1nc2ccc(C(=N)N)cc2[nH]1 [Compound 103]
## Result −

## Task Please indicate CD recorded for N=C(N)c1ccc(OCCCCCCCCCCCCOc2ccc(C(=N)N)cc2Br)c(Br)c1 [Compound 76]
## Result −

## Task Please indicate CD recorded for N=C(N)c1ccc(-c2ccc(-c3nc4ccccc4[nH]3)o2)cc1 [Compound 122]
## Result +

## Task Please indicate CD recorded for Cl.N=C(N)c1ccccc1 [Compound 46]
## Result −

## Task Please indicate CD recorded for CC(C)c1ccc(OCc2ccc(C(=N)N)cc2)cc1 [Compound 70]
## Result +

Next:
## Task Please indicate CD recorded for CC(C)NC(=N)c1cccc(COc2cccc3c(OCc4cccc(C(=N)NC(C)C)c4)cccc23)c1 [Compound 60]
## Result +

## Task Please indicate CD recorded for COc1ccc(-c2ccc(-c3ccc(C(=N)N)cc3)o2)cc1 [Compound 117]
## Result −

## Task Please indicate CD recorded for COc1ccc(-c2ccc(-c3ccc(NC(=N)N)cc3)o2)cc1 [Compound 123]
## Result −

## Task Please indicate CD recorded for N=C(N)c1ccc2nc(-c3ccc(C4CC4c4ccc(-c5nc6ccc(C(=N)N)cc6[nH]5)cc4)cc3)[nH]c2c1 (stereo not drawn) [Compound 115]
## Result −

Where do these numbers come from? They come from patent US20040147531A1.
